Reference for the values: patent US20190135915A1

ASSAYED_TARGET: T1, FcRn (analyte in the Biacore T200 study) (human, UniProt P55899 24-297; P61769 21-119, limits assumed)
T1 construct: also called human FcRn
T1 sequence (P55899 24-297 limits assumed, chain 1 of 2): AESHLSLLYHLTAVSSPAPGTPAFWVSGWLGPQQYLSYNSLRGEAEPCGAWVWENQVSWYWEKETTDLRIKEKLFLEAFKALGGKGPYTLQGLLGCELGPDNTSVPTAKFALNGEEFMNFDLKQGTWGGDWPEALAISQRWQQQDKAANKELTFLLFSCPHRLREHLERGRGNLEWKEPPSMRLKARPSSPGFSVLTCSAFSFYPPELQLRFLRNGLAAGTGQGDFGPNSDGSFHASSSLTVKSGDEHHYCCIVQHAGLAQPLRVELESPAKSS
T1 sequence (P61769 21-119 limits assumed, chain 2 of 2): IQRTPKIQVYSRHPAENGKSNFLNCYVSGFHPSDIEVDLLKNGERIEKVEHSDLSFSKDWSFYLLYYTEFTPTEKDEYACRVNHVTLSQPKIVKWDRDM
ASSAY_PROTOCOL: SPR Biacore T200, antibody amine-coupled to CM5, FcRn analyte, 1:1 model; pH not stated
PROPERTY_LABEL: pKd
Notebook: values listed as pKd are -log10 of the concentration (mol/L).

Identify measured pKd associated with G49_H9.3/Vκ3 (antibody, V domains shown, Bivalent IgG4 with S241P, human kappa; also called SYNT002-21; G49_H9.3 VH1) VH: EVQLVESGGGLVKPGGSLKLSCAASGFTFSDYGMHWVRQAPGKGLEWVAYISSGSSTIYYADTVKGRFTISRDNAKNTLYLQMNSLRAEDTAMYYCARFDSLSTVGDYWGQGTSVTVSS VL: DIVMTQSPDSLSASVGDRVTITCKASQSVSNDVAWYQQKPGQPPKLLIYYASNRYTGVPDRFSGSGYGTDFTLTISSLQAEDVAVYFCQQDYSSLTFGQGTKLEIK
8.95
